# ASSAY SYSTEM: T1, RSV F ectodomain stabilized in the postfusion conformation (F ΔFP), subtype A (Respiratory syncytial virus subtype A, UniProt P03420 26-109; P03420 147-524)
# T1 construct: extracellular domain; trimer; also called Postfusion subtype A; Postfusion RSV F
# EXPERIMENTAL PROTOCOL: BLI, IgG on AHQ sensors, 100 nM antigen
READOUT KIND: Kd (nM)
Express the result in nM but write the number alone.

Some solved cases for reference:
-- ask Find the measured Kd of ADI-14547 (antibody, V domains shown, IgG; also called Antibody Number 107) VH: EVQLLESGPVLVKPTETLTLTCTVSGFSLANPDVAVAWIRQPPGKALEWLAHIFSGDETSYTTSLQNRLTISKDTSKSQVVLIMTKMDPRDTGTYFCARVLTTWHGPDYWGQGTTVTVSS VL: ETTLTQSPLSLPVTLGQPASISCRSDQSLVYHNGNTYVSWFHQRPGQSPRRLIYKVSIRDSGVPDRFSGSGSGTDFALKISRVEAEDLGVYYCMQGSHWPHTFGQGTKVDIK and report it.
-- reply 0.169

-- ask Indicate the recorded Kd value for this binder: ADI-14559 (antibody, V domains shown, IgG; also called Antibody Number 119) VH: EVQLLESGGGLVKPGGSLRLSCAASGFIFTNAWMSWVRQAPGKGLEWVGRIKRKTETGTTDYAPPVKGRFTISRDDSRSTLYLQMNSLKTEDTAVYYCTTGPPYQYYDSTGYSVVDYWGQGTLVTVSS VL: SYELTQPPSASGTPGQRVTISCSGSSSNIGSNIGINYVYWYQQLPGTAPKLLIYSTNQRPSGVPDRFSGSQSGTSASLAISGLRSEDEADYYCAAWDDSLSGPVFGGGTKLTVL
-- reply 0.204

Now consider a different binder.
-- ask Answer with reported Kd of ADI-14538 (antibody, V domains shown, IgG; also called Antibody Number 98) VH: EVQLVESGGGVVQPGRSLRLSCAVSGFTFSNFGMHWVRQAPGKGLEWVAAISYDGRKTFQADSVKGRFIISRDNLKNTLNLQMNSLKTEDTAVYYCAKSSRFLDWLYNMDFWGQGTTVTVSS VL: SYELTQPPSVSEAPGKTATITCGGIILGTSSVHWFQQKSGQAPVLVIYYDSDRPSGIPERFSGSHSGDTATLTISRVEVGDEADYYCQVWDNSHSQGVFGGGTQLTVL
-- reply 0.35

Ref: patent US20250313612A1
